Numbers sourced from PubChem BioAssay (Tox21).

- assayed_target: Voltage-gated inwardly rectifying potassium channel KCNH2 (Homo sapiens) (UniProt Q12809)
- Sequence (Q12809 whole entry, looked up): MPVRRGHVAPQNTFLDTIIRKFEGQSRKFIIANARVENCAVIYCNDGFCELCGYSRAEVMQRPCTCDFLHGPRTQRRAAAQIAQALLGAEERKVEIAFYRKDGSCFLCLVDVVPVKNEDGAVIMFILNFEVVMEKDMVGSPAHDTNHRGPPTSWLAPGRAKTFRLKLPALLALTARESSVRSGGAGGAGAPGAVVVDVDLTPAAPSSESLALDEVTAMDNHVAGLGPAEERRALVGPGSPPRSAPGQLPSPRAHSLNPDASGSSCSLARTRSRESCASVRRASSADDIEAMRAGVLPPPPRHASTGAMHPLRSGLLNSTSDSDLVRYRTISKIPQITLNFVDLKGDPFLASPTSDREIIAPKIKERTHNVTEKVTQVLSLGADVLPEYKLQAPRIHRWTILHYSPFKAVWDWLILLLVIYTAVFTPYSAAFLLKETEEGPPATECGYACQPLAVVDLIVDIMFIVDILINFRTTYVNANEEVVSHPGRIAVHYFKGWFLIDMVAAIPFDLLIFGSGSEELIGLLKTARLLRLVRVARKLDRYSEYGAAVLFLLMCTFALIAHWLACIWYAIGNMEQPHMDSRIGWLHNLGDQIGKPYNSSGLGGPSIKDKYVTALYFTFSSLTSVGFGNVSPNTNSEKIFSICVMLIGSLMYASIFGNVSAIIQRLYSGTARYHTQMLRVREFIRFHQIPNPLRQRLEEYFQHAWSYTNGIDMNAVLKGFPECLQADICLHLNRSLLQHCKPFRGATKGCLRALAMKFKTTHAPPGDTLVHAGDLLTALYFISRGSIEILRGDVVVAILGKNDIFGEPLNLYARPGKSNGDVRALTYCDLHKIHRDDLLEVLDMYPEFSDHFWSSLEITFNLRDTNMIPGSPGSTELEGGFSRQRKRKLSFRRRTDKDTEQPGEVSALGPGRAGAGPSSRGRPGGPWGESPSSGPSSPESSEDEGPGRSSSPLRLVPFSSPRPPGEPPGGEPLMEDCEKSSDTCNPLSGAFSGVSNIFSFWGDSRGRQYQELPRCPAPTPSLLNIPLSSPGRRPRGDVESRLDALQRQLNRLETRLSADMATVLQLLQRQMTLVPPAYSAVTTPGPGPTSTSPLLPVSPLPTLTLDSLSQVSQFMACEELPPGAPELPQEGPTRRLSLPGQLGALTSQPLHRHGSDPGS
- assay_procedure: Human Ether-a-go-go-Related Gene (hERG) channel small molecule antagonists: fluorescence cell-based qHTS assay (AID 1671200);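 further: hERG-expressing U2OS cells given a thallium stimulus after FluxOR II dye loading; nearly all actives have a fitted effect of over 50% in size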
- assay_conditions: hERG-U2OS cells, FluxOR thallium flux fluorescence; series mostly up to 76.8 µM
- Source text: National Center for Advancing Translational Sciences [NCATS] U.S. Environmental Protection Agency [EPA] National Institutes of Environmental Health Sciences [NIEHS] National Toxicology Program [NTP] U.S. Food and Drug Administration [FDA] Mutations in the hERG channel cause Long QT (LQT) syndrome. LQT syndrome is a cardiac disorder which can cause ventricle arrhythmia and sudden death. Additionally, compounds which block the hERG channel can cause acquired LQT syndrome. […]
Inconclusive results are not listed. Active and inactive are the calls of the source. The call rests on the fitted dose curve; in most records, active means well fitted inhibition curve with a large enough effect in the repeat runs; inconclusive means weak or mixed curves; inactive means flat fitted curve, though single readings scatter.
quantity_name: activity change, negative = inhibition

- compound: "NNC(=O)CCCCC(=O)NN"
  assayed_target: "Voltage-gated inwardly rectifying potassium channel KCNH2 (Homo sapiens) (UniProt Q12809)"
  quantity_name: "activity change, negative = inhibition"
  measurement: "inactive"
- compound: "COc1cc(S(N)(=O)=O)cc(C(=O)O)c1OC"
  assayed_target: "Voltage-gated inwardly rectifying potassium channel KCNH2 (Homo sapiens) (UniProt Q12809)"
  quantity_name: "activity change, negative = inhibition"
  measurement: "inactive"
- compound: "CCCCS"
  assayed_target: "Voltage-gated inwardly rectifying potassium channel KCNH2 (Homo sapiens) (UniProt Q12809)"
  quantity_name: "activity change, negative = inhibition"
  measurement: "inactive"
- compound: "COC(=O)/C=C(\\C)CCC=C(C)C"
  assayed_target: "Voltage-gated inwardly rectifying potassium channel KCNH2 (Homo sapiens) (UniProt Q12809)"
  quantity_name: "activity change, negative = inhibition"
  measurement: "inactive"
- compound: "CCCCN(CCCC)CCCCCCN(CCCC)CCCC"
  assayed_target: "Voltage-gated inwardly rectifying potassium channel KCNH2 (Homo sapiens) (UniProt Q12809)"
  quantity_name: "activity change, negative = inhibition"
  measurement: "inactive"
- compound: "COC(=O)C(c1ccccc1Cl)N1CCc2sccc2C1 (stereo not given)"
  assayed_target: "Voltage-gated inwardly rectifying potassium channel KCNH2 (Homo sapiens) (UniProt Q12809)"
  quantity_name: "activity change, negative = inhibition"
  measurement: "inactive"
- compound: "Cc1ccc(OC(=O)CC(C)C)cc1"
  assayed_target: "Voltage-gated inwardly rectifying potassium channel KCNH2 (Homo sapiens) (UniProt Q12809)"
  quantity_name: "activity change, negative = inhibition"
  measurement: "inactive"
- compound: "N=C(N)N"
  assayed_target: "Voltage-gated inwardly rectifying potassium channel KCNH2 (Homo sapiens) (UniProt Q12809)"
  quantity_name: "activity change, negative = inhibition"
  measurement: "inactive"
- compound: "C=CC(=O)CC"
  assayed_target: "Voltage-gated inwardly rectifying potassium channel KCNH2 (Homo sapiens) (UniProt Q12809)"
  quantity_name: "activity change, negative = inhibition"
  measurement: "inactive"
- compound: "C=CCCCCCCCCOC(C)=O"
  assayed_target: "Voltage-gated inwardly rectifying potassium channel KCNH2 (Homo sapiens) (UniProt Q12809)"
  quantity_name: "activity change, negative = inhibition"
  measurement: "inactive"
- compound: "C[C@]12C=CC(=O)C=C1[C@@H](F)C[C@@H]1[C@@H]2[C@@H](O)C[C@@]2(C)[C@H]1CC[C@]2(O)C(=O)CO"
  assayed_target: "Voltage-gated inwardly rectifying potassium channel KCNH2 (Homo sapiens) (UniProt Q12809)"
  quantity_name: "activity change, negative = inhibition"
  measurement: "inactive"
- compound: "CCO/C=C1\\N=C(c2ccccc2)OC1=O"
  assayed_target: "Voltage-gated inwardly rectifying potassium channel KCNH2 (Homo sapiens) (UniProt Q12809)"
  quantity_name: "activity change, negative = inhibition"
  measurement: "inactive"
- compound: "BrCCOc1ccccc1"
  assayed_target: "Voltage-gated inwardly rectifying potassium channel KCNH2 (Homo sapiens) (UniProt Q12809)"
  quantity_name: "activity change, negative = inhibition"
  measurement: "inactive"
- compound: "Cc1cc(C)c(N)c(Cl)c1"
  assayed_target: "Voltage-gated inwardly rectifying potassium channel KCNH2 (Homo sapiens) (UniProt Q12809)"
  quantity_name: "activity change, negative = inhibition"
  measurement: "inactive"
- compound: "CC(C)C(C)C"
  assayed_target: "Voltage-gated inwardly rectifying potassium channel KCNH2 (Homo sapiens) (UniProt Q12809)"
  quantity_name: "activity change, negative = inhibition"
  measurement: "inactive"
